test: Pharmacokinetic study in SD rats: plasma GlcNBu after oral gavage of test compound; assay type: in vivo, Sprague-Dawley (SD) rats; design: key: (—): not detected; conditions: Table 5: plasma GlcNBu after oral administration of the indicated compound, 0.93 mmol/kg
Assay Endpoint: CLz/F

> print(dat)
                                   molecule  obs.value
1  CCCC(=O)N[C@H]1C(O)O[C@H](COC(=O)NCCCC(=O)O)[C@@H](O)[C@@H]1O (stereo partly drawn)        (—)
2  CCCC(=O)N[C@H]1C(OCc2ccccc2)O[C@H](CO)[C@@H](O)[C@@H]1OCc1ccccc1 (stereo partly drawn)        (—)
3  CCCC(=O)N[C@H]1C(O)O[C@H](CO)[C@@H](O[C@@H]2O[C@H](CO)[C@@H](O)[C@H](O)[C@H]2O)[C@@H]1O (stereo partly drawn)  10 L/h/kg
4  CCCC(=O)N[C@@H]1C(OC(=O)CCC)O[C@H](COC(=O)CCC)[C@@H](OC(=O)CCC)[C@@H]1O (stereo partly drawn)  22 L/h/kg
5  CCCC(=O)N[C@H]1C(O)O[C@H](COC(=O)CCC(=O)O)[C@@H](OC(=O)CCC(=O)O)[C@@H]1O (stereo partly drawn)        (—)

// below: CLz/F requested for another molecule
Indicate the recorded CLz/F value for this molecule: CCCC(=O)N[C@H]1C(OCc2ccccc2)O[C@H](CO)[C@@H](O)[C@@H]1O (stereo partly drawn) (—)

====

assay: Pharmacokinetic study in SD rats: plasma GlcNBu after oral gavage of test compound; format: in vivo, Sprague-Dawley (SD) rats; parameters: key: (—): not detected; conditions: Table 5: plasma GlcNBu after oral administration of the indicated compound, 0.93 mmol/kg
Assay Endpoint: AUC0-t

Recorded AUC0-t, per entry:
Compound	AUC0-t
CCCC(=O)N[C@H]1C(O)O[C@H](COC(=O)CCC(=O)O)[C@@H](OC(=O)CCC(=O)O)[C@@H]1O (stereo partly drawn) [Compound 79]	(—)
CCCC(=O)N[C@H]1C(O)O[C@H](CO)[C@@H](O[C@@H]2O[C@H](CO)[C@@H](O)[C@H](O)[C@H]2O)[C@@H]1O (stereo partly drawn) [Compound 89]	1757 ng·h/mL
CCCC(=O)N[C@H]1C(OCc2ccccc2)O[C@H](CO)[C@@H](O)[C@@H]1O (stereo partly drawn) [Compound 75, 1-O-benzyl-2-N-butyryl-D-glucosamine]	(—)
CCCC(=O)N[C@H]1C(OCc2ccccc2)O[C@H](CO)[C@@H](O)[C@@H]1OCc1ccccc1 (stereo partly drawn) [Compound 76]	(—)
CCCC(=O)N[C@@H]1C(OC(=O)CCC)O[C@H](COC(=O)CCC)[C@@H](OC(=O)CCC)[C@@H]1O (stereo partly drawn) [Compound 74]	662 ng·h/mL

For the next question, use this compound.
Find the measured AUC0-t of CCCC(=O)N[C@H]1C(O)O[C@H](COC(=O)NCCCC(=O)O)[C@@H](O)[C@@H]1O (stereo partly drawn) [Compound 94] and report it. (—)

====

assay: Pharmacokinetic study in SD rats: plasma GlcNBu after oral gavage of test compound; assay type: in vivo, Sprague-Dawley (SD) rats; parameters: key: (—): not detected; details: Table 5: plasma GlcNBu after oral administration of the indicated compound, 0.93 mmol/kg
Assay Endpoint: AUC0-∞

> print(dat)
                                   compound     obs.value
1  CCCC(=O)N[C@H]1C(O)O[C@H](COC(=O)NCCCC(=O)O)[C@@H](O)[C@@H]1O (stereo partly drawn)           (—)
2  CCCC(=O)N[C@H]1C(OCc2ccccc2)O[C@H](CO)[C@@H](O)[C@@H]1OCc1ccccc1 (stereo partly drawn)           (—)
3  CCCC(=O)N[C@H]1C(O)O[C@H](CO)[C@@H](O[C@@H]2O[C@H](CO)[C@@H](O)[C@H](O)[C@H]2O)[C@@H]1O (stereo partly drawn)  1942 ng·h/mL
4  CCCC(=O)N[C@H]1C(OCc2ccccc2)O[C@H](CO)[C@@H](O)[C@@H]1O (stereo partly drawn)           (—)
5  CCCC(=O)N[C@@H]1C(OC(=O)CCC)O[C@H](COC(=O)CCC)[C@@H](OC(=O)CCC)[C@@H]1O (stereo partly drawn)   889 ng·h/mL

Please find the next compound below.
Using known records, supply AUC0-∞ for CCCC(=O)N[C@H]1C(O)O[C@H](COC(=O)CCC(=O)O)[C@@H](OC(=O)CCC(=O)O)[C@@H]1O (stereo partly drawn) (—)

====

assay: Pharmacokinetic study in SD rats: plasma GlcNBu after oral gavage of test compound; format: in vivo, Sprague-Dawley (SD) rats; design: key: (—): not detected; settings: Table 5: plasma GlcNBu after oral administration of the indicated compound, 0.93 mmol/kg
Assay Endpoint: Cmax

Worked examples follow.
Compound	Cmax
CCCC(=O)N[C@H]1C(OCc2ccccc2)O[C@H](CO)[C@@H](O)[C@@H]1OCc1ccccc1 (stereo partly drawn) [Compound 76]	(—)
CCCC(=O)N[C@H]1C(OCc2ccccc2)O[C@H](CO)[C@@H](O)[C@@H]1O (stereo partly drawn) [Compound 75, 1-O-benzyl-2-N-butyryl-D-glucosamine]	(—)
CCCC(=O)N[C@H]1C(O)O[C@H](COC(=O)NCCCC(=O)O)[C@@H](O)[C@@H]1O (stereo partly drawn) [Compound 94]	(—)
CCCC(=O)N[C@H]1C(O)O[C@H](COC(=O)CCC(=O)O)[C@@H](OC(=O)CCC(=O)O)[C@@H]1O (stereo partly drawn) [Compound 79]	(—)
CCCC(=O)N[C@H]1C(O)O[C@H](CO)[C@@H](O[C@@H]2O[C@H](CO)[C@@H](O)[C@H](O)[C@H]2O)[C@@H]1O (stereo partly drawn) [Compound 89]	1110 ng/mL

Specify measured Cmax for CCCC(=O)N[C@@H]1C(OC(=O)CCC)O[C@H](COC(=O)CCC)[C@@H](OC(=O)CCC)[C@@H]1O (stereo partly drawn) [Compound 74] . 426 ng/mL

====

assay: Pharmacokinetic study in SD rats: plasma GlcNBu after oral gavage of test compound; assay type: in vivo, Sprague-Dawley (SD) rats; details: Table 5: plasma GlcNBu after oral administration of the indicated compound, 0.93 mmol/kg
Assay Endpoint: Tmax

Worked set:
> print(dat)
                                   compound  assay.endpoint  obs.value
1  CCCC(=O)N[C@H]1C(O)O[C@H](CO)[C@@H](O[C@@H]2O[C@H](CO)[C@@H](O)[C@H](O)[C@H]2O)[C@@H]1O (stereo partly drawn)            Tmax        2 h
2  CCCC(=O)N[C@@H]1C(OC(=O)CCC)O[C@H](COC(=O)CCC)[C@@H](OC(=O)CCC)[C@@H]1O (stereo partly drawn)            Tmax        0 h
3  CCCC(=O)N[C@H]1C(O)O[C@H](COC(=O)CCC(=O)O)[C@@H](OC(=O)CCC(=O)O)[C@@H]1O (stereo partly drawn)            Tmax        (—)
4  CCCC(=O)N[C@H]1C(OCc2ccccc2)O[C@H](CO)[C@@H](O)[C@@H]1O (stereo partly drawn)            Tmax        (—)
5  CCCC(=O)N[C@H]1C(O)O[C@H](COC(=O)NCCCC(=O)O)[C@@H](O)[C@@H]1O (stereo partly drawn)            Tmax        (—)

Item CCCC(=O)N[C@H]1C(OCc2ccccc2)O[C@H](CO)[C@@H](O)[C@@H]1OCc1ccccc1 (stereo partly drawn) : provide Tmax (—)

====

assay: Pharmacokinetic study in SD rats: plasma GlcNBu after oral gavage of test compound; format: in vivo, Sprague-Dawley (SD) rats; parameters: key: (—): not detected; settings: Table 5: plasma GlcNBu after oral administration of the indicated compound, 0.93 mmol/kg
Assay Endpoint: t1/2z

Some solved cases for reference:
> print(dat)
                                   compound  assay.endpoint  obs.value
1  CCCC(=O)N[C@H]1C(O)O[C@H](COC(=O)CCC(=O)O)[C@@H](OC(=O)CCC(=O)O)[C@@H]1O (stereo partly drawn)           t1/2z        (—)
2  CCCC(=O)N[C@H]1C(O)O[C@H](CO)[C@@H](O[C@@H]2O[C@H](CO)[C@@H](O)[C@H](O)[C@H]2O)[C@@H]1O (stereo partly drawn)           t1/2z        1 h
3  CCCC(=O)N[C@H]1C(OCc2ccccc2)O[C@H](CO)[C@@H](O)[C@@H]1OCc1ccccc1 (stereo partly drawn)           t1/2z        (—)
4  CCCC(=O)N[C@H]1C(OCc2ccccc2)O[C@H](CO)[C@@H](O)[C@@H]1O (stereo partly drawn)           t1/2z        (—)
5  CCCC(=O)N[C@@H]1C(OC(=O)CCC)O[C@H](COC(=O)CCC)[C@@H](OC(=O)CCC)[C@@H]1O (stereo partly drawn)           t1/2z        1 h

Please report t1/2z for the following compound: CCCC(=O)N[C@H]1C(O)O[C@H](COC(=O)NCCCC(=O)O)[C@@H](O)[C@@H]1O (stereo partly drawn) (—)
